molecular target: human apelin receptor (Homo sapiens)
endpoint_label: Ki (nM)

{"molecule": "COc1cccc(OC)c1-c1cc(C(=O)N[C@@H](CC(=O)O)C2CCCCC2)nn1-c1ccc(F)cc1 [Compound 21]", "measured": 1400}

====

Target: human APJ (Homo sapiens)
Sequence (P35414 1-380): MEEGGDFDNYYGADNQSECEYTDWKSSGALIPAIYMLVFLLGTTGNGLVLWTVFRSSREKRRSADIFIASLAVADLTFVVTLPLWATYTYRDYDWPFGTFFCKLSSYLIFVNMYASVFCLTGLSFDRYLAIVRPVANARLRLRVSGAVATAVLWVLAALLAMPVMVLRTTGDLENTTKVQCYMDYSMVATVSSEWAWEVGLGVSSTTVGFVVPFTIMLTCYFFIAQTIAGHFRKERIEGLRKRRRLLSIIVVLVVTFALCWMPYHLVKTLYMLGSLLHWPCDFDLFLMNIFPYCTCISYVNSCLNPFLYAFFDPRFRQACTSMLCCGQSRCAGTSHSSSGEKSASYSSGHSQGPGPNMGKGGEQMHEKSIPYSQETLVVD
Test: Calcium mobilization assay for APJ
Assay type: cell-based
pEC50: −log10 of the molar value.

{"entry_smiles": "COc1cccc(OC)c1-c1cc(C(=O)N[C@@H](CC(=O)O)C2CCCCC2)nn1-c1ccc(F)cc1", "pEC50": 5.00}

====

biological target: human APJ (Homo sapiens, UniProt P35414); experiment: Calcium mobilization assay for APJ; format: cell-based; details: calcium mobilization

{"entry_smiles": "COc1cccc(OC)c1-c1cc(C(=O)N[C@H](C(=O)NCc2ccccc2)C2CCCCC2)nn1-c1ccc(F)cc1", "tested_on": "human APJ (Homo sapiens, UniProt P35414)", "APJ agonist activity": "devoid of activity"}
{"entry_smiles": "COc1cccc(OC)c1-c1cc(C(=O)N[C@H](C(N)=O)C2CCCCC2)nn1-c1ccc(F)cc1", "tested_on": "human APJ (Homo sapiens, UniProt P35414)", "APJ agonist activity": "devoid of activity"}
{"entry_smiles": "COc1cccc(OC)c1-c1cc(C(=O)N[C@H](C(=O)NCC(=O)O)C2CCCCC2)nn1-c1ccc(F)cc1", "tested_on": "human APJ (Homo sapiens, UniProt P35414)", "APJ agonist activity": "inactive"}
{"entry_smiles": "COc1cccc(OC)c1-c1cc(C(=O)N[C@@H](CCCCN)C(=O)O)nn1-c1ccc(F)cc1", "tested_on": "human APJ (Homo sapiens, UniProt P35414)", "APJ agonist activity": "not tolerated"}
{"entry_smiles": "COc1cccc(OC)c1-c1cc(C(=O)N[C@H](C(=O)N(C)C)C2CCCCC2)nn1-c1ccc(F)cc1", "tested_on": "human APJ (Homo sapiens, UniProt P35414)", "APJ agonist activity": "devoid of activity"}
{"entry_smiles": "COc1cccc(OC)c1-c1cc(C(=O)N[C@@H](CCCCNC(=O)OC(C)(C)C)C(=O)O)nn1-c1ccc(F)cc1", "tested_on": "human APJ (Homo sapiens, UniProt P35414)", "APJ agonist activity": "not tolerated"}
{"entry_smiles": "COc1cccc(OC)c1-c1cc(C(=O)N[C@@H](CCC(N)=O)C(=O)O)nn1-c1ccc(F)cc1", "tested_on": "human APJ (Homo sapiens, UniProt P35414)", "APJ agonist activity": "not tolerated"}
{"entry_smiles": "Cc1cc(C(=O)N[C@H](C(=O)O)C2CCCCC2)nn1-c1ccc(F)cc1", "tested_on": "human APJ (Homo sapiens, UniProt P35414)", "APJ agonist activity": "inactive"}
{"entry_smiles": "COc1cccc(OC)c1-c1cc(C(=O)N[C@H](C(=O)NO)C2CCCCC2)nn1-c1ccc(F)cc1", "tested_on": "human APJ (Homo sapiens, UniProt P35414)", "APJ agonist activity": "not tolerated"}
